Below, each entry is listed with its recorded melting point.
// note: answer is a bare numeric in °C

Below, 4 compounds whose answers are already recorded.
Compound: O/C(=C\C1=Nc2cc(CN3CCOCC3)ccc2C2=NCCN12)c1ccc2[nH]cnc2c1
melting point, °C: 219

Compound: COc1cccc2c1N=C(NC(=O)c1ccc(N)nc1)N1CCN=C21.Cl
melting point, °C: 296

Compound: O=C(NC1=Nc2cc(C(F)(F)F)ccc2C2=NCCN12)c1cccnc1
melting point, °C: 229

Compound: O/C(=C\C1=Nc2ccc(Cl)cc2C2=NCCN12)c1cccnc1 [Example 1-189]
melting point, °C: 260

// switching to the query compound
## Input Need melting point of COc1cc2c(cc1OC)C1=NCCN1C(NC(=O)c1ccc(NC(C)=O)nc1)=N2.Cl , thanks.
## Output 279

====

Target system: Recombinant human PI3Kγ (full length human PI3K p110γ) (Homo sapiens, UniProt P48736)
Construct: full length human PI3K p110γ fused with a His6-tag at the C-terminus; His6 (C); purchased ALEXIS BIOCHEMICALS #201-055-C010; host or cells: S. frugiperda 9 insect cells
Sequence (P48736 whole entry, the tested form may be a part): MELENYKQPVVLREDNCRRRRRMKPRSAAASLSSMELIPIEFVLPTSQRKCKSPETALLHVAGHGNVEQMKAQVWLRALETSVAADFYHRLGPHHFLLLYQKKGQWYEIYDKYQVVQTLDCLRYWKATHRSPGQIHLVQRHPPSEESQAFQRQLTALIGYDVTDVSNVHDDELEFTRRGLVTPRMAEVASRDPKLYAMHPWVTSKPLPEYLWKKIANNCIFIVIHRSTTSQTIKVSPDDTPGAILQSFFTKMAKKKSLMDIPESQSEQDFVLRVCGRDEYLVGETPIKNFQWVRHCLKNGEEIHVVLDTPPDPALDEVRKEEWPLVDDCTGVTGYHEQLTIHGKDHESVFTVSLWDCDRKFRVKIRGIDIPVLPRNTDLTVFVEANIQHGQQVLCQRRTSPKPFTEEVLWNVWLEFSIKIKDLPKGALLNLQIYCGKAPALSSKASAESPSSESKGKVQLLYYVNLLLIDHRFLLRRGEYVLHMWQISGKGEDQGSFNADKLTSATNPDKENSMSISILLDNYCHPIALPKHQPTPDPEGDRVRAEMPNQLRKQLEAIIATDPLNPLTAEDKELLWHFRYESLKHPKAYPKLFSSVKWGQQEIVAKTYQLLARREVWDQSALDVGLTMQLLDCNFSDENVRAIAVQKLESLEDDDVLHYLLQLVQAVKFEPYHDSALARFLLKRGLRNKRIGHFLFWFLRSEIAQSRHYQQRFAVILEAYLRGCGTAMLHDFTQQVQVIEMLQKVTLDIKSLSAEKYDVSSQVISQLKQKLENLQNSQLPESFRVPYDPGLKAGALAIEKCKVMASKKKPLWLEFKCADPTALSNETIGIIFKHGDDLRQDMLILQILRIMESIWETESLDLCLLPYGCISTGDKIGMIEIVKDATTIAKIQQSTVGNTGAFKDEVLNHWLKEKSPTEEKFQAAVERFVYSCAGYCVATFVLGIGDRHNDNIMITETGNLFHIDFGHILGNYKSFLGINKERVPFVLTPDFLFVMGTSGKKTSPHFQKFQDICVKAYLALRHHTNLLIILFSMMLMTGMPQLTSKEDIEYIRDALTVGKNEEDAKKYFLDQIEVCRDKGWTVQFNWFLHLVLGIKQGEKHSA
Test protocol: Kinase assay of PI3Kγ (solid-phase lipid kinase assay)
Type: biochemical
Condition set: Table 1, isozyme not given; read-out: in vitro
pIC50: −log10 of the molar value.
Assay endpoint: pIC50

Below, 2 molecules whose answers are already recorded.
Molecule: COc1ccc2c(c1OCCN1CCOCC1)N=C(/C=C(\O)c1cccnc1)N1CCN=C21 [Example 1-36]
Recorded value: > 7.00
--
Molecule: COc1cc2c(cc1OC)C1=NCCN1C(/C=C(\O)c1sc(C)nc1C)=N2 [Example 1-60]
Recorded value: > 7.00

## Input Report pIC50 for COc1cc2c(cc1OC)C1=NCCN1C(/C=C(\O)c1ccc(C)nc1)=N2.Cl [Example 1-50] tested on Recombinant human PI3Kγ (full length human PI3K p110γ) (Homo sapiens, UniProt P48736).
## Output 6.30 to 7.00

## Input Report pIC50 for O/C(=C\C1=Nc2ccc(Cl)cc2C2=NCCN12)c1cccnc1 [Example 1-189] tested on Recombinant human PI3Kγ (full length human PI3K p110γ) (Homo sapiens, UniProt P48736).
## Output 5.70 to 6.30

## Input Report pIC50 for CN1CCN(c2ccc3c(c2)N=C(/C=C(\O)c2ccc4[nH]cnc4c2)N2CCN=C32)CC1 [Example 1-107] tested on Recombinant human PI3Kγ (full length human PI3K p110γ) (Homo sapiens, UniProt P48736).
## Output > 7.00

## Input Report pIC50 for COc1c(OCC(=O)OC(C)(C)C)ccc2c1N=C(/C=C(\O)c1cccnc1)N1CCN=C21 [Example 1-18] tested on Recombinant human PI3Kγ (full length human PI3K p110γ) (Homo sapiens, UniProt P48736).
## Output 6.30 to 7.00

## Input Report pIC50 for CCC(C(=O)c1ccccc1)C1=Nc2ccccc2C2=NCCN21 (centres unmarked) [Example 1-193] tested on Recombinant human PI3Kγ (full length human PI3K p110γ) (Homo sapiens, UniProt P48736).
## Output < 5.70

## Input Report pIC50 for O/C(=C\C1=Nc2ccccc2C2=NCCN12)c1ccncc1 [Example 1-175] tested on Recombinant human PI3Kγ (full length human PI3K p110γ) (Homo sapiens, UniProt P48736).
## Output 6.30 to 7.00

====

Counter-ions that a name gives are not always drawn.
Below, each entry is listed with its recorded melting point.

Compound: Cl.O/C(=C\C1=Nc2c(F)cccc2C2=NCCN12)c1cccnc1 [Example 1-71]
melting point: 303 °C

Compound: CC(=O)Nc1ccc(/C(O)=C/C2=Nc3c(CN4CCOCC4)cccc3C3=NCCN23)cn1.Cl
melting point: > 260 °C

Compound: O=C(Nc1nc2ccccc2c2nccn12)c1cccnc1 (as salt: hydrochloride) [Example 4-2]
melting point: 228 °C (dec.)

## Input Need melting point of O=C(NC1=Nc2ccccc2C2=NCCN12)c1ccco1.O=C(O)C(F)(F)F , thanks.
## Output 230 to 232 °C

## Input Need melting point of O=C(NC1=Nc2ccccc2C2=NCCN12)c1cnccn1 , thanks.
## Output 267 to 268 °C

## Input Need melting point of Cl.O=C(NC1=Nc2ccc(Cl)cc2C2=NCCN12)c1ccc2[nH]cnc2c1 , thanks.
## Output 305 °C (dec.)

====

Assay endpoint: melting point

Structure smiles: CS(=O)(=O)c1ccc(C(=O)NC2=Nc3ccccc3C3=NCCN23)cc1
melting point: 278 °C (dec.)

## Input Need melting point of CSc1ccc(C(=O)NC2=Nc3ccccc3C3=NCCN23)cc1.Cl , thanks.
## Output 292 °C (dec.)

## Input Need melting point of O=C(NC1=Nc2ccccc2C2=NCCN12)c1ccc(-n2cccc2)cc1 , thanks.
## Output 218 to 220 °C

## Input Need melting point of Cc1cc(Br)c2c(c1)C1=NCCN1C(/C=C(\O)c1cccnc1)=N2.Cl , thanks.
## Output > 290 °C

====

Below, each entry is listed with its recorded melting point.

Below, 5 molecules whose answers are already recorded.
Molecule: Cc1ccc(C(=O)NC2=Nc3ccccc3C3=NCCN23)s1
melting point: 192 to 193 °C

Molecule: COc1c(OCC(=O)OC(C)(C)C)ccc2c1N=C(/C=C(\O)c1cccnc1)N1CCN=C21
melting point: 184 to 186 °C

Molecule: O=C(Cc1cccs1)NC1=Nc2ccccc2C2=NCCN12
melting point: 122 to 123 °C

Molecule: Cl.O=C(NC1=Nc2cc(Cl)ccc2C2=NCCN12)c1cccs1
melting point: 328 °C

Molecule: COc1ccc2c(c1OC)N=C(NC(=O)c1cncc(O)c1)N1CCN=C21.Cl
melting point: 240 °C (dec.)

## Input Need melting point of CCOC(=O)c1cc(C(=O)NC2=Nc3ccccc3C3=NCCN23)cc(C(=O)OCC)c1.Cl , thanks.
## Output 282 °C

## Input Need melting point of Cc1c(C(=O)NC2=Nc3ccccc3C3=NCCN23)cnc(N)c1C.Cl , thanks.
## Output 298 °C (dec.)

## Input Need melting point of COc1cccc2c1N=C(NC(=O)c1cncc(O)c1)N1CCN=C21.Cl , thanks.
## Output 285 °C (dec.)

## Input Need melting point of Cc1nc(NC(=O)OC(C)(C)C)sc1/C(O)=C/C1=Nc2ccccc2C2=NCCN12 , thanks.
## Output > 300 °C

## Input Need melting point of COc1c(OCC2CC2)ccc2c1N=C(/C=C(\O)c1cccnc1)N1CCN=C21 , thanks.
## Output 254 °C (dec.)

====

Below, each entry is listed with its recorded melting point.

Below, 3 compounds whose answers are already recorded.
Structure smiles: CN(CCO)c1ccc2c(c1)N=C(/C=C(\O)c1ccc3[nH]cnc3c1)N1CCN=C21.Cl
Recorded value: 231 °C (dec.)
--
Structure smiles: COc1c(OCC(=O)N2CCOCC2)ccc2c1N=C(/C=C(\O)c1cccnc1)N1CCN=C21
Recorded value: 235 °C
--
Structure smiles: CC(=O)Nc1ccc(/C(O)=C/C2=Nc3cc(N4CCN(C)CC4)ccc3C3=NCCN23)cn1.Cl
Recorded value: 280 °C (dec.)

// switching to the query compound
## Input Need melting point of COc1cc2c(c(OC)c1C)N=C(NC(=O)c1ccc3[nH]cnc3c1)N1CCN=C21.Cl , thanks.
## Output 280 °C (dec.)

====

Below, each entry is listed with its recorded melting point.

Below, 4 molecules whose answers are already recorded.
Structure smiles: CC(=O)Nc1ccc(/C(O)=C/C2=Nc3c(C)cccc3C3=NCCN23)cn1.Cl
melting point: > 285 °C

Structure smiles: CN(C)C(=O)NCCc1ccc2c(n1)N=C(/C=C(\O)c1cccnc1)N1CCN=C21
melting point: 228 °C

Structure smiles: COc1cccc2c1N=C(/C=C(\O)c1cccnc1)N1CCN=C21
melting point: 275 °C

Structure smiles: COc1cc2c(c(OC)c1C)N=C(NC(=O)c1ccc(NC(C)=O)nc1)N1CCN=C21.Cl
melting point: 305 °C (dec.)

// switching to the query molecule
## Input Need melting point of CN(C)c1cccc(C(=O)NC2=Nc3ccccc3C3=NCCN23)c1 , thanks.
## Output 188 to 190 °C

====

Assay endpoint: melting point

Below, 2 molecules whose answers are already recorded.
Molecule: COc1cc(OC)c2c(c1)C1=NCCN1C(NC(=O)c1ccc3[nH]cnc3c1)=N2.Cl [Example 2-73]
Assay endpoint: melting point
Recorded value: 289 °C (dec.)
//
Molecule: O=C(NC1=Nc2ccccc2C2=NCCN12)c1ccco1 [Example 2-298]
Assay endpoint: melting point
Recorded value: 350 °C (dec.)

## Input Need melting point of Cc1cc(Br)c2c(c1)C1=NCCN1C(/C=C(\O)c1ccc3[nH]cnc3c1)=N2.Cl [Example 1-48] , thanks.
## Output > 285 °C

## Input Need melting point of Cl.O/C(=C\C1=Nc2c(OCCN3CCOCC3)cccc2C2=NCCN12)c1cccnc1 [Example 1-85] , thanks.
## Output 261 to 262 °C

## Input Need melting point of O=C(NC1=Nc2cc(C(F)(F)F)ccc2C2=NCCN12)c1cccs1 [Example 2-349] , thanks.
## Output 226 °C

## Input Need melting point of CNc1ccc(C(=O)NC2=Nc3ccccc3C3=NCCN23)cn1.Cl [Example 2-154] , thanks.
## Output 300 °C (dec.)

Attribution: patent US7511041B2
